Taken from patent US20050049403A1.

Listed below: pIC50 values for each entry.
experimental-target: T1, recombinant human TGFβ2 (human, UniProt P61812 303-414)
T1 construct: mature; also called TGFbeta2; rhTGFβ2
T1 sequence (looked up): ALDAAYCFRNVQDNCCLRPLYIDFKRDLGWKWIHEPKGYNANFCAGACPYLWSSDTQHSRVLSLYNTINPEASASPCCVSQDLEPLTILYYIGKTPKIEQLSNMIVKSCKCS
assay: radioreceptor assay, inhibition of 125I-TGFβ2 binding to A549 cells; concentration of antibody combining sites
pIC50: −log10 of the molar value.

[
  {
    "binder": "6H1 scFv (scFv) scFv: EVQLVESGGGVVQPGRSLRLSCAASGFTFSSYGMHWVRQAPGKGLEWVAVIWYDGSNKYYADSVKGRFTISRDNSKNTLYLQMDSLRAEDTAVYYCGRTLESSLWGQGTLVTVSSGGGGSGGGGSGGGGSDVVMTQSPSSLSASVGDRVTITCRASQGISNYLAWYQQKPGKAPKLLIYKASTLESGVPSRFSGSGSGTEFTLTISSLQPEDFATYYCQQSYSTPRTFGQGTKVDIKR",
    "pIC50": 9.66
  },
  {
    "binder": "11E6 IgG (antibody, V domains shown, its construction as a whole antibody is not described) VH: EIQLVESGGGVVQPGRSLRLSCAASGFTFSSYAMHWVRQAPAKGLEWVAVISYDGSNKYYADSVKGRFTISRDNSKNTLYLQMNSLRAEDTAVYYCARAGLETTWGQGTLVTVSS VL: EVVLTQSPSSLSASVGDRVTITCRASQGIGDDLGWYQQKPGKAPILLIYGTSTLQSGVPSRFSGSGSGTDFTLTINSLQPEDFATYYCLQDSNYPLTFGGGTRLEIKR",
    "pIC50": 8.80
  },
  {
    "binder": "6B1 scFv (scFv, also called 6B1 single chain Fv) scFv: EVQLVESGGGVVQPGRSLRLSCAASGFTFSSYGMHWVRQAPGKGLEWVAVIWYDGSNKYYADSVKGRFTISRDNSKNTLYLQMDSLRAEDTAVYYCGRTLESSLWGQGTLVTVSSGGGGSGGGGSGGGGSSSELTQDPAVSVALGQTVRITCQGDSLRSYYASWYQQKPGQAPVLVIYGKNNRPSGIPDRFSGSSSGNTASLTITGAQAEDEADYYCNSRDSSSTHRGVFGGGTKLTVLG",
    "pIC50": 9.52
  }
]
